The following sequences are listed with their measured Haspin(h) % activity values.
# system: Haspin(h) (Homo sapiens)
# Construct: purchased Millipore
# Sequence (Q8TF76 1-798): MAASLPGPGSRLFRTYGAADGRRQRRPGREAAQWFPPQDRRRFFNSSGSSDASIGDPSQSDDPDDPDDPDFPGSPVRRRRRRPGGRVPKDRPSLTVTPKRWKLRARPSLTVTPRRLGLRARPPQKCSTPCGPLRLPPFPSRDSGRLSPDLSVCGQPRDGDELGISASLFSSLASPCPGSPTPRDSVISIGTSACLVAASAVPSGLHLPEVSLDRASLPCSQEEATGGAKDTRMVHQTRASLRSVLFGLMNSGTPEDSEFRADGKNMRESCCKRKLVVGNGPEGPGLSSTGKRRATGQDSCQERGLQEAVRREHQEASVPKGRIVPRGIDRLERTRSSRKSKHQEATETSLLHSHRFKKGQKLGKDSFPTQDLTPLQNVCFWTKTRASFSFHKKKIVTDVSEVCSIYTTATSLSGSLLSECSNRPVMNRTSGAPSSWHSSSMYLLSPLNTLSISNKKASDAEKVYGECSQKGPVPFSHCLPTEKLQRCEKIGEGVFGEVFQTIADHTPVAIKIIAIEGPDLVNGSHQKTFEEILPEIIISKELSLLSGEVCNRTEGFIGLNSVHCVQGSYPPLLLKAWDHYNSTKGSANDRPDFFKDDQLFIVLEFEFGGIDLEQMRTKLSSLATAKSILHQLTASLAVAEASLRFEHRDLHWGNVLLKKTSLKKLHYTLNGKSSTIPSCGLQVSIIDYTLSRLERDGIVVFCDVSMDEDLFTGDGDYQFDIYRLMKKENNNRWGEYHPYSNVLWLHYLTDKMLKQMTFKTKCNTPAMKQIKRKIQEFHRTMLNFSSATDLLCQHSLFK
# protocol_description: Kinase Profiling Assay
# Format: biochemical
# experimental_parameters: 100 μM peptide
Numeric only. Scale: %

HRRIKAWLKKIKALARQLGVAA (Mammalian) [MMI-0500]	25

(Q) Give the value of Haspin(h) % activity reported for the following: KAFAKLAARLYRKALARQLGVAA [MMI-0400]
(A) 36

(Q) Give the value of Haspin(h) % activity reported for the following: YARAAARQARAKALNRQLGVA (Mammalian) [MMI-0200]
(A) 71

(Q) Give the value of Haspin(h) % activity reported for the following: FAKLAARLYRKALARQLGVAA [MMI-0300]
(A) 48

* * *

The following sequences are listed with their measured CHK2(I157T)(h) % activity values.
# system: CHK2(I157T)(h) (Homo sapiens, UniProt O96017, I157T)
# Sequence (O96017 whole entry I157T): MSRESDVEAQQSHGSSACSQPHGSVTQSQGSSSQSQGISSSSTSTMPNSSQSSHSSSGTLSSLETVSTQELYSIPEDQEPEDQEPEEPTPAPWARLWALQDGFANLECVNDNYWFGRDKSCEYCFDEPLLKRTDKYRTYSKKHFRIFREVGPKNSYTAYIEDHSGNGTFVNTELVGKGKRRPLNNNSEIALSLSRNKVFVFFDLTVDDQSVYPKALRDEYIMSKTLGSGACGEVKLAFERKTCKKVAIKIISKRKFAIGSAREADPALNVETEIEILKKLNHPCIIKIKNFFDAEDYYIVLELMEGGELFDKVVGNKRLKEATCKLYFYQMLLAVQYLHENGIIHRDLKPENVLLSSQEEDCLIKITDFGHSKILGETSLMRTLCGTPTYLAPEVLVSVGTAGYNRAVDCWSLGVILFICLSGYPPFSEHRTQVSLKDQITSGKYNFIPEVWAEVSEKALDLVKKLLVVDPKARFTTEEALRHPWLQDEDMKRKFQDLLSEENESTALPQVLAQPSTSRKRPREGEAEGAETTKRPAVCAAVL
# protocol_description: Kinase Profiling Assay
# Type: biochemical
# experimental_parameters: 100 μM peptide

Known CHK2(I157T)(h) % activity results, listed for orientation:
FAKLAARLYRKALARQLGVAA [MMI-0300]	43%
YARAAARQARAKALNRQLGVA (Mammalian) [MMI-0200]	85%
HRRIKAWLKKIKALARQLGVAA (Mammalian) [MMI-0500]	3%

(Q) Give the value of CHK2(I157T)(h) % activity reported for the following: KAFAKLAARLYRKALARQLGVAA [MMI-0400]
(A) 41%

* * *

# system: PKD2(h) (Homo sapiens, UniProt Q9BZL6)
# Construct: purchased Millipore (IC50 Profiler Express service)
# Sequence (Q9BZL6 1-878): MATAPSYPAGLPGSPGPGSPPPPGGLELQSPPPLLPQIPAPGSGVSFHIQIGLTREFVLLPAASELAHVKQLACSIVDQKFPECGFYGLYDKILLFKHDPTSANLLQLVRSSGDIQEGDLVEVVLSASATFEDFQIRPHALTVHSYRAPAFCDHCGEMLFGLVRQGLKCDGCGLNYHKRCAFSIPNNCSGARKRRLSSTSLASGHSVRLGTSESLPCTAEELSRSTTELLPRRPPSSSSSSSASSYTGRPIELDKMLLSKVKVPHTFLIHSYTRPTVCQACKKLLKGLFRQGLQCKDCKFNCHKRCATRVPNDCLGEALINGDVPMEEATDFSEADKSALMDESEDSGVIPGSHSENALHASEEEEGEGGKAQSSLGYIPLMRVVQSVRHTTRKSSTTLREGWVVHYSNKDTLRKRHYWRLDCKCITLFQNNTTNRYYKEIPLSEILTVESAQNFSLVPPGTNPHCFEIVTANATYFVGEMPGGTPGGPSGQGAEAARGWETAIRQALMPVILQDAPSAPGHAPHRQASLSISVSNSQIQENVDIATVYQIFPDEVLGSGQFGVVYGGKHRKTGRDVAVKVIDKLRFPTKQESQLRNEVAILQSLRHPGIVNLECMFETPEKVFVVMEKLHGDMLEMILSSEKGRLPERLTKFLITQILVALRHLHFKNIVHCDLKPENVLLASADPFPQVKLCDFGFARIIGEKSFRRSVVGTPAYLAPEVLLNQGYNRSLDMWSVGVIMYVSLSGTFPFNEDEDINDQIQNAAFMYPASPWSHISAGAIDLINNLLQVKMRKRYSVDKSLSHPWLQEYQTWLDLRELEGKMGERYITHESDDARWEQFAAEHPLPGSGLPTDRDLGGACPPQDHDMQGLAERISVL
# protocol_description: Kinase Profiling Assay
# Type: biochemical
# experimental_parameters: 100 μM peptide
test_readout: PKD2(h) % activity (%)
Numeric only. Scale: %

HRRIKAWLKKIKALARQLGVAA (Mammalian) [MMI-0500]	10

(Q) Give the value of PKD2(h) % activity reported for the following: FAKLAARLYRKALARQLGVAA [MMI-0300]
(A) 33

(Q) Give the value of PKD2(h) % activity reported for the following: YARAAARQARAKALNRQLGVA (Mammalian) [MMI-0200]
(A) 78

(Q) Give the value of PKD2(h) % activity reported for the following: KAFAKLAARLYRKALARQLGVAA [MMI-0400]
(A) 25

* * *

# system: IRAK4(h) (Homo sapiens, UniProt Q9NWZ3)
# Construct: purchased Millipore
# Sequence (Q9NWZ3 1-460): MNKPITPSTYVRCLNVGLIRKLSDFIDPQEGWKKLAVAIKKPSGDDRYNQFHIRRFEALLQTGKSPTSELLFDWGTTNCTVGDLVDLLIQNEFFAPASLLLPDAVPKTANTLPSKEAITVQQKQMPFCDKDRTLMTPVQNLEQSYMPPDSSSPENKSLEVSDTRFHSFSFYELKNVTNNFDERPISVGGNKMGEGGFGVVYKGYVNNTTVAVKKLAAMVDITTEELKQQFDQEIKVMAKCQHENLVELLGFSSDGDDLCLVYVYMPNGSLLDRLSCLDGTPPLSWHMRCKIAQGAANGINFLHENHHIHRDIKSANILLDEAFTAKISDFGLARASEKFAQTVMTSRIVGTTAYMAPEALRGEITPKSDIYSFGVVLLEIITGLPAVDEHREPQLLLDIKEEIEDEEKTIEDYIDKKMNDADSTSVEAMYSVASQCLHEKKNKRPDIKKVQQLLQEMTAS
# protocol_description: Kinase Profiling Assay
# Assay type: biochemical
# experimental_parameters: 100 μM peptide
test_readout: IRAK4(h) % activity (%)
Numeric only. Scale: %

Known IRAK4(h) % activity results, listed for orientation:
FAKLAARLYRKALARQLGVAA [MMI-0300]	59
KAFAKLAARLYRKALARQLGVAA [MMI-0400]	59

(Q) Write down measured IRAK4(h) % activity (IRAK4(h) (Homo sapiens, UniProt Q9NWZ3)) for this sequence. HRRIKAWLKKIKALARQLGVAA (Mammalian) [MMI-0500]
(A) 3

(Q) Write down measured IRAK4(h) % activity (IRAK4(h) (Homo sapiens, UniProt Q9NWZ3)) for this sequence. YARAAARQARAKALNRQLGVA (Mammalian) [MMI-0200]
(A) 110

* * *

# system: WNK3(h) (Homo sapiens, UniProt Q9BYP7)
# Sequence (Q9BYP7 whole entry): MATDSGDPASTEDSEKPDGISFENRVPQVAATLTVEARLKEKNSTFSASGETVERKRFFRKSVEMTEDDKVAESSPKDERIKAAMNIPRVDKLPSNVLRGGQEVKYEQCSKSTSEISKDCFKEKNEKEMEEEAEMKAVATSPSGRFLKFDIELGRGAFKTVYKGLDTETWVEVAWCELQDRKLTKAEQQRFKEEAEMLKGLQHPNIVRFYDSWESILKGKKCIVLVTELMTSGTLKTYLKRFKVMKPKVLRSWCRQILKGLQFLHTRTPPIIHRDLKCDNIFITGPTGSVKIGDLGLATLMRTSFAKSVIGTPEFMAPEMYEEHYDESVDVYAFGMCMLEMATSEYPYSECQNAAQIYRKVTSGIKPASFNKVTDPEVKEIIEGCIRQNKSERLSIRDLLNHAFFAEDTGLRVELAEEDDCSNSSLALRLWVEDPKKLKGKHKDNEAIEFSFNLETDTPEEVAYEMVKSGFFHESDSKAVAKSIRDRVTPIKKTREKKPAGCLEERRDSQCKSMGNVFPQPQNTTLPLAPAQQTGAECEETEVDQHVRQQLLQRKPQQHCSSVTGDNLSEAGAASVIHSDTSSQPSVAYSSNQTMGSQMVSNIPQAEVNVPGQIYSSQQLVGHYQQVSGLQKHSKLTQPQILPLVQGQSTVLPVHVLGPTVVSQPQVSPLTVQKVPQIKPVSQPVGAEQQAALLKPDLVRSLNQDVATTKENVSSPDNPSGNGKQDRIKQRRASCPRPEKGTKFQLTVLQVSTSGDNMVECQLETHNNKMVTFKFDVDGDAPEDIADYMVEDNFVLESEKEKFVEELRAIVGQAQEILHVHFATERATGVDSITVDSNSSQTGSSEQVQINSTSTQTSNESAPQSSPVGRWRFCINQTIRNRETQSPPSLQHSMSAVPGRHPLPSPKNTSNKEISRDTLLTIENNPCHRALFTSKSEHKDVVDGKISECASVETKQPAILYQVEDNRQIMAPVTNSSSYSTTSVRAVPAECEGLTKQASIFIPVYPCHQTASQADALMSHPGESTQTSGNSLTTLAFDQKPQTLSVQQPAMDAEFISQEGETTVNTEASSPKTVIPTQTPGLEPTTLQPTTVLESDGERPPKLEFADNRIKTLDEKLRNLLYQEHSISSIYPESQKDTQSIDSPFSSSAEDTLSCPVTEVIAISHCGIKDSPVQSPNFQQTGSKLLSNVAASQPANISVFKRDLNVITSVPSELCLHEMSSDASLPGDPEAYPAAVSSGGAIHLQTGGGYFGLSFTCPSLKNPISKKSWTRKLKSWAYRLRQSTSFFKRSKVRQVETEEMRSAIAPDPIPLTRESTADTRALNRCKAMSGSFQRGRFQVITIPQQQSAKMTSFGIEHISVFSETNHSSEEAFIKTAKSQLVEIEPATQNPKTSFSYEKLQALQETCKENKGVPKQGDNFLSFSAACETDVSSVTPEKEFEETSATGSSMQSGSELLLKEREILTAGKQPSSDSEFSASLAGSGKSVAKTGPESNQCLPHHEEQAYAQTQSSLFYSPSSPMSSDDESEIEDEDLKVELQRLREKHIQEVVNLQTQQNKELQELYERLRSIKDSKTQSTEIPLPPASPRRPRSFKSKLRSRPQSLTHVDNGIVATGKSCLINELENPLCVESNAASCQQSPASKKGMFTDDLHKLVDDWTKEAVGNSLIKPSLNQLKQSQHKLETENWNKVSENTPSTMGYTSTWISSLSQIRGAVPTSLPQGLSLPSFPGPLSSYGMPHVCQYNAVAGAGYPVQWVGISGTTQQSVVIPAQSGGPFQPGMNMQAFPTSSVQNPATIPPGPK
# protocol_description: Kinase Profiling Assay
# Type: biochemical
# experimental_parameters: 100 μM peptide
The following sequences are listed with their measured WNK3(h) % activity values.
Numeric only. Scale: %

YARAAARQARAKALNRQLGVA (Mammalian) [MMI-0200]	97

(Q) Write down measured WNK3(h) % activity (WNK3(h) (Homo sapiens, UniProt Q9BYP7)) for this sequence. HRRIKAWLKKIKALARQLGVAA (Mammalian) [MMI-0500]
(A) 9

(Q) Write down measured WNK3(h) % activity (WNK3(h) (Homo sapiens, UniProt Q9BYP7)) for this sequence. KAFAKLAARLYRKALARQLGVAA [MMI-0400]
(A) 74

(Q) Write down measured WNK3(h) % activity (WNK3(h) (Homo sapiens, UniProt Q9BYP7)) for this sequence. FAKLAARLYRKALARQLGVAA [MMI-0300]
(A) 77

* * *

# system: Src(1-530)(h) (Homo sapiens)
# Construct: Src(1-530)
# protocol_description: Kinase Profiling Assay
# Format: biochemical
# experimental_parameters: 100 μM peptide
test_readout: Src(1-530)(h) % activity (%)
Numeric only. Scale: %

Known Src(1-530)(h) % activity results, listed for orientation:
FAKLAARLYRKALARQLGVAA [MMI-0300]	23
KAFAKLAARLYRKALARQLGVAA [MMI-0400]	19

(Q) Give the value of Src(1-530)(h) % activity reported for the following: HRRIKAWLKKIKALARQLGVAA (Mammalian) [MMI-0500]
(A) 21

(Q) Give the value of Src(1-530)(h) % activity reported for the following: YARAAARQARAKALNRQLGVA (Mammalian) [MMI-0200]
(A) 75
